Below, each entry is listed with its recorded Ratio EC50.
Species: Homo sapiens
Assay: Selectivity ratio of EC50 for human OX2 receptor to EC50 for human OX1 receptor
Where a SMILES comes first, the peptide text is derived from it.
Output spec: single numeric token, no unit.

// below: answered molecules
{"Molecule": "CC[C@H](C)[C@H](NC(=O)CNC(=O)[C@H](C)NC(=O)[C@H](C)NC(=O)[C@H](Cc1cnc[nH]1)NC(=O)[C@H](CC(N)=O)NC(=O)CNC(=O)[C@H](C)NC(=O)CNC(=O)[C@H](Cc1cnc[nH]1)NC(=O)[C@H](C)NC(=O)[C@H](CC(C)C)NC(=O)[C@H](CCC(=O)O)NC(=O)[C@@H](N)Cc1ccc(O)cc1)C(=O)N[C@@H](CC(C)C)C(=O)N[C@H](C(=O)N[C@@H](CC(C)C)C(N)=O)[C@@H](C)O (H-YELAHGAGNHAAGILTL-NH2)", "Measured result": 2.4}
{"Molecule": "CC[C@H](C)[C@H](NC(=O)CNC(=O)[C@H](C)NC(=O)[C@H](C)NC(=O)[C@H](Cc1cnc[nH]1)NC(=O)[C@H](CC(N)=O)NC(=O)CNC(=O)[C@H](C)NC(=O)CNC(=O)[C@H](Cc1cnc[nH]1)NC(=O)[C@H](CC(C)C)NC(=O)[C@H](CC(C)C)NC(=O)[C@H](CCC(=O)O)NC(=O)[C@H](C)N)C(=O)N[C@@H](CC(C)C)C(=O)N[C@H](C(=O)N[C@@H](CC(C)C)C(N)=O)[C@@H](C)O (H-AELLHGAGNHAAGILTL-NH2)", "Measured result": 2.5}
{"Molecule": "CC[C@H](C)[C@H](NC(=O)CNC(=O)[C@H](C)NC(=O)[C@H](C)NC(=O)[C@H](Cc1cnc[nH]1)NC(=O)[C@H](CC(N)=O)NC(=O)CNC(=O)[C@H](C)NC(=O)CNC(=O)[C@H](Cc1cnc[nH]1)NC(=O)[C@@H]1CCCN1C(=O)[C@H](CC(C)C)NC(=O)[C@H](CCC(=O)O)NC(=O)[C@@H](N)Cc1ccc(O)cc1)C(=O)N[C@@H](CC(C)C)C(=O)N[C@H](C(=O)N[C@@H](CC(C)C)C(N)=O)[C@@H](C)O (H-YELPHGAGNHAAGILTL-NH2)", "Measured result": 1.4}
{"Molecule": "CC[C@H](C)[C@H](NC(=O)CNC(=O)[C@H](C)NC(=O)[C@H](C)NC(=O)[C@H](Cc1cnc[nH]1)NC(=O)[C@H](CC(N)=O)NC(=O)CNC(=O)[C@H](C)NC(=O)CNC(=O)[C@H](Cc1cnc[nH]1)NC(=O)[C@H](CC(C)C)NC(=O)[C@H](CC(C)C)NC(=O)[C@H](CCC(=O)O)NC(=O)[C@H](N)Cc1ccc(O)cc1)C(=O)N[C@@H](CC(C)C)C(=O)N[C@H](C(=O)N[C@@H](CC(C)C)C(N)=O)[C@@H](C)O", "Measured result": 2.4}
{"Molecule": "CC[C@H](C)[C@H](NC(=O)CNC(=O)[C@H](C)NC(=O)[C@H](C)NC(=O)[C@H](Cc1cnc[nH]1)NC(=O)[C@H](CC(N)=O)NC(=O)CNC(=O)[C@H](C)NC(=O)CNC(=O)[C@H](Cc1cnc[nH]1)NC(=O)[C@H](CC(C)C)NC(=O)[C@H](CC(C)C)NC(=O)[C@H](CCC(=O)O)NC(=O)[C@@H]1CCCN1)C(=O)N[C@@H](CC(C)C)C(=O)N[C@H](C(=O)N[C@@H](CC(C)C)C(N)=O)[C@@H](C)O (H-PELLHGAGNHAAGILTL-NH2)", "Measured result": 2.4}
{"Molecule": "CC[C@H](C)[C@H](NC(=O)CNC(=O)[C@H](C)NC(=O)[C@H](C)NC(=O)[C@H](Cc1cnc[nH]1)NC(=O)[C@H](CC(N)=O)NC(=O)CNC(=O)[C@H](C)NC(=O)[C@@H]1CCCN1C(=O)[C@H](Cc1cnc[nH]1)NC(=O)[C@H](CC(C)C)NC(=O)[C@H](CC(C)C)NC(=O)[C@H](CCC(=O)O)NC(=O)[C@@H](N)Cc1ccc(O)cc1)C(=O)N[C@@H](CC(C)C)C(=O)N[C@H](C(=O)N[C@@H](CC(C)C)C(N)=O)[C@@H](C)O (H-YELLHPAGNHAAGILTL-NH2)", "Measured result": 0.9}
{"Molecule": "CC[C@H](C)[C@H](NC(=O)CNC(=O)[C@H](C)NC(=O)[C@H](C)NC(=O)[C@H](Cc1cnc[nH]1)NC(=O)[C@H](CC(N)=O)NC(=O)CNC(=O)[C@H](C)NC(=O)CNC(=O)[C@H](Cc1cnc[nH]1)NC(=O)[C@H](CC(C)C)NC(=O)[C@H](CC(C)C)NC(=O)[C@@H](CCC(=O)O)NC(=O)[C@@H](N)Cc1ccc(O)cc1)C(=O)N[C@@H](CC(C)C)C(=O)N[C@H](C(=O)N[C@@H](CC(C)C)C(N)=O)[C@@H](C)O", "Measured result": 2.9}
{"Molecule": "CC[C@H](C)[C@H](NC(=O)CNC(=O)[C@H](C)NC(=O)[C@H](C)NC(=O)[C@H](Cc1cnc[nH]1)NC(=O)[C@H](CC(N)=O)NC(=O)[C@H](C)NC(=O)[C@H](C)NC(=O)CNC(=O)[C@H](Cc1cnc[nH]1)NC(=O)[C@H](CC(C)C)NC(=O)[C@H](CC(C)C)NC(=O)[C@H](CCC(=O)O)NC(=O)[C@@H](N)Cc1ccc(O)cc1)C(=O)N[C@@H](CC(C)C)C(=O)N[C@H](C(=O)N[C@@H](CC(C)C)C(N)=O)[C@@H](C)O (H-YELLHGAANHAAGILTL-NH2)", "Measured result": 1.3}

// moving on: another record for Ratio EC50
Query: Given `CC[C@H](C)[C@H](NC(=O)CNC(=O)[C@H](C)NC(=O)[C@H](C)NC(=O)[C@H](Cc1cnc[nH]1)NC(=O)[C@H](CC(N)=O)NC(=O)CNC(=O)[C@H](C)NC(=O)CNC(=O)[C@H](Cc1cnc[nH]1)NC(=O)[C@H](CC(C)C)NC(=O)[C@@H](CC(C)C)NC(=O)[C@H](CCC(=O)O)NC(=O)[C@@H](N)Cc1ccc(O)cc1)C(=O)N[C@@H](CC(C)C)C(=O)N[C@H](C(=O)N[C@@H](CC(C)C)C(N)=O)[C@@H](C)O` , state its recorded Ratio EC50.
Response: 0.5
